Please go through the items and note down their melting point.
Numbers only, in °C.

The following molecules have reported results that may help.
| MOLECULE | melting point, °C |
| --- | --- |
| CCOCCOC(=O)/C(C#N)=C(\N)C(CC)CC [Example 2.23] | 70 |
| CCOC(=O)/C(C#N)=C(\N)C(C)(C)Cl [Example 2.9] | 56 |

For every item in the list below, what is its measured melting point?
1. CCC(CC)/C(N)=C(\C#N)C(=O)OCCOC [Example 2.22]
2. CCOC(=O)/C(C#N)=C(\N)C(C)(C)Br [Example 2.10]
3. CCC(CC)/C(N)=C(\C#N)C(=O)OC [Example 2.5]
4. CCCOC(=O)/C(C#N)=C(\N)C(CC)CC [Example 2.2]
5. CCCOC(=O)/C(C#N)=C(\N)C(CC)CSC (stereo not shown) [Example 2.3]

Output:
70
46
65
84
78

----------
OBSERVATION TYPE: melting point

The following molecules have reported results that may help.
| MOLECULE | melting point |
| --- | --- |
| CCOC(=O)/C(C#N)=C(\N)C(C)CC (stereo not drawn) [Example 2.6] | 102 to 103 °C |
| CCOC(=O)/C(C#N)=C(\N)C(C)(C)CC [Example 2.8] | 65 to 67 °C |

The record that follows has no melting point shown yet.
Documented melting point of CCOC(=O)/C(C#N)=C(\N)C(CC)CC [Example 2.1] : 85 to 87 °C
